Numbers sourced from patent US12083094B2.

Assay: Blood sampling for THC and CBD plasma concentration after single oral dosing
Conditions: dog, plasma, oral, CBD concentration in blood plasma, mean of dogs 1-4; 0.12 mg/kg CBD + 0.24 mg/kg THC oral once; 1.5 h

{"inputSmiles": "C=C(C)[C@@H]1CCC(C)=C[C@H]1c1c(O)cc(CCCCC)cc1O", "unitAnnotation": "ng/mL", "concentration at 1.5 h": 8.6}

###

Assay: Blood sampling for THC and CBD plasma concentration after single oral dosing
Conditions: dog, plasma, oral, CBD concentration in blood plasma, mean of dogs 5-8; 0.24 mg/kg CBD + 0.12 mg/kg THC oral once; 72 h
quantityKind: concentration at 72 h (ng/mL)

{"inputSmiles": "C=C(C)[C@@H]1CCC(C)=C[C@H]1c1c(O)cc(CCCCC)cc1O", "quantityKind": "concentration at 72 h", "val": 0}

###

Experiment: Blood sampling for THC and CBD plasma concentration after single oral dosing
Settings: dog, plasma, oral, THC level in blood plasma fraction, mean of dogs 5-8; 0.12 mg/kg THC + 0.24 mg/kg CBD oral once; 24 h

{"molecule": "CCCCCc1cc(O)c2c(c1)OC(C)(C)[C@@H]1CCC(C)=C[C@@H]21 [THC, Δ^9-Tetrahydrocannabinol]", "concentration at 24 h (ng/mL)": 0.28}

###

Experiment: Blood sampling for THC and CBD plasma concentration after single oral dosing
Conditions: dog, plasma, oral, CBD concentration in blood plasma, individual dogs 5-8; 0.24 mg/kg CBD + 0.12 mg/kg THC oral once; 3 h

{"inputSmiles": "C=C(C)[C@@H]1CCC(C)=C[C@H]1c1c(O)cc(CCCCC)cc1O", "concentration at 3 h": "9.21 ng/mL"}

###

Assay: Blood sampling for THC and CBD plasma concentration after single oral dosing
Conditions: dog, plasma, oral, THC level in blood plasma fraction, mean of dogs 1-4; 0.24 mg/kg THC + 0.12 mg/kg CBD oral once; 48 h
quantityKind: concentration at 48 h

{"compound": "CCCCCc1cc(O)c2c(c1)OC(C)(C)[C@@H]1CCC(C)=C[C@@H]21 [THC, Δ^9-Tetrahydrocannabinol]", "val": "0.24 ng/mL"}

###

Experiment: Blood sampling for THC and CBD plasma concentration after single oral dosing
Conditions: dog, plasma, oral, THC level in blood plasma fraction, mean of dogs 1-4; 0.24 mg/kg THC + 0.12 mg/kg CBD oral once; 16 h
Experimental: Two compositions, IVP1 and IVP2, were administered in varying amounts in the study. Dosage volumes were calculated prior to Day 0, to provide the target dosage in mg/kg bodyweight based on actual dog bodyweights and IVP active ingredient composition based on the Certificates of Analysis. Blood samples of approximately 5 mL were collected at each drug concentration sampling time-point from each animal using 22-gauge needles and 5 mL syringes. […]

{"molecule": "CCCCCc1cc(O)c2c(c1)OC(C)(C)[C@@H]1CCC(C)=C[C@@H]21 [THC, Δ^9-Tetrahydrocannabinol]", "unitAnnotation": "ng/mL", "concentration at 16 h": 0.75}

###

Assay: Blood sampling for THC and CBD plasma concentration after single oral dosing
Settings: dog, plasma, oral, THC level in blood plasma fraction, mean of dogs 5-8; 0.12 mg/kg THC + 0.24 mg/kg CBD oral once; 3 h
quantityKind: concentration at 3 h (ng/mL)

{"compound": "CCCCCc1cc(O)c2c(c1)OC(C)(C)[C@@H]1CCC(C)=C[C@@H]21 [THC, Δ^9-Tetrahydrocannabinol]", "val": 7.84}
